Origin of measurements: patent US20160002248A1

TARGET_OR_TEST_SYSTEM: purified recombinant human GAC (GLS1) (Homo sapiens, UniProt O94925)
Sequence (O94925 55-598 isoform O94925-3 limits assumed): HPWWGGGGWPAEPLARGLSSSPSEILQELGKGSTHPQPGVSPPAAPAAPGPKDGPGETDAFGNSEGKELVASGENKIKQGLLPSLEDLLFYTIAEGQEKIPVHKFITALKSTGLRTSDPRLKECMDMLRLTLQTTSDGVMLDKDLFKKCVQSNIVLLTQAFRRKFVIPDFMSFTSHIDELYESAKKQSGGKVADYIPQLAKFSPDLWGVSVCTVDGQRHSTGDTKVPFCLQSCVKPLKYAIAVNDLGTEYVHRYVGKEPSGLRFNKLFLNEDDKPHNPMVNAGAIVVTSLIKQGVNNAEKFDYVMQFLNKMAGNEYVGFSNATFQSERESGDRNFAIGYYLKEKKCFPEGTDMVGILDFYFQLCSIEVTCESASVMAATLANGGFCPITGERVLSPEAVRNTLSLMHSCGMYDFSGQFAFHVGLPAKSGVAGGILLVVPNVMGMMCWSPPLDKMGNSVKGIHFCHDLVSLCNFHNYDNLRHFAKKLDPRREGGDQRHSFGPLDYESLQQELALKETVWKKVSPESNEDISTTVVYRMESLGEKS
TEST_DETAILS: GLS1 Enzymatic Activity Assay (dual-coupled enzymatic assay)
pIC50: −log10 of the molar value.
PROPERTY_NAME: pIC50

Examples from the recorded data:
{"columns": ["COMPOUND", "pIC50"],
 "data": [
  ["Cc1cccc(CNC(=O)c2cn(CCCCc3cc4cc(C5CC5)[nH]c4nn3)nn2)n1", "6.30 to 7.00"],
  ["CC(=O)N1CC(c2cc3cc(CCCCn4cc(C(=O)NCc5cc(OC(F)(F)F)ccc5F)nn4)nnc3[nH]2)C1", "> 7.00"],
  ["O=C(Cc1ccccc1)Nc1nnc(CCCCCc2cc3cc(Cc4ccccc4)[nH]c3nn2)s1", "5.30 to 6.30"],
  ["O=C(NCc1ccccn1)c1cn(CCCCc2cc3c(-c4ccc(C(F)(F)F)cc4)c(C4CC4)[nH]c3nn2)nn1", "> 7.00"],
  ["O=C(NCc1cccc(OC(F)(F)F)c1)c1cn(CCCCc2cc3cc(C4CC4)[nH]c3nn2)nn1", "> 7.00"],
  ["O=C(Cc1ccccc1)Nc1nnc(CCCCc2cc3cc(Cc4ccccc4)[nH]c3nn2)s1", "> 7.00"],
  ["O=C(NCc1cccnc1)c1cn(CCCCc2cc3cc(C4CC4)[nH]c3nn2)nn1", "6.30 to 7.00"],
  ["O=C(NCc1cc(OC(F)(F)F)ccc1F)c1cn(CCCCc2cc3c(Cc4ccccn4)c(C4CC4)[nH]c3nn2)nn1", "> 7.00"]
]}

Task: Value lookup for pIC50; key = Cc1ccc(CNC(=O)c2cn(CCCCc3cc4cc(-c5cccc(C(F)(F)F)c5)[nH]c4nn3)nn2)cn1
Output: > 7.00

Task: What value of pIC50 has been reported for the following compound? CNC(=O)c1cn(CC(F)CCc2cc3cc(-c4ccccc4F)[nH]c3nn2)nn1 (centres unmarked)
Output: 6.30 to 7.00

Task: Find the recorded pIC50 belonging to CC(C)OC(=O)N1CC(c2cc3cc(CCCCn4cc(C(=O)NCc5cc(C(F)(F)F)ccn5)nn4)nnc3[nH]2)C1 and report it.
Output: > 7.00

Task: What does the record list as pIC50 for O=C(NCc1cc(C(F)(F)F)ccn1)c1cn(CCCCc2cc3cc(-c4ccccc4F)[nH]c3nn2)nn1 ?
Output: > 7.00

Task: Entry O=C(NCC1COC1)c1nnc(CCCCc2cc3cc(Cc4ccccc4)[nH]c3nn2)s1 has what pIC50?
Output: 6.30 to 7.00

Task: Reported pIC50 for CC(C)(C)C(=O)N1CC(c2cc3cc(CCCCn4cc(C(=O)NCc5cc(OC(F)(F)F)ccc5F)nn4)nnc3[nH]2)C1 : what is it?
Output: > 7.00

Task: pIC50 for O=C(Nc1nnc(CCCCc2cc3cc(Cc4ccccc4)[nH]c3nn2)s1)[C@@H](O)c1ccccc1 ?
Output: > 7.00

Task: Quick one: pIC50 for O=C(Cc1ccccc1)Nc1ccn(CCCCc2cc3cc(Cc4ccccc4)[nH]c3nn2)c(=O)n1 ?
Output: > 7.00

Task: Suppose we examine the compound O=C(NCc1ccc(CF)nc1)c1cn(CCCCc2cc3c(C4CC4)c(C4CC4)[nH]c3nn2)nn1 ; what pIC50 value has been reported?
Output: > 7.00
